# study_system: Glucose-dependent insulinotropic receptor (Homo sapiens, UniProt Q8TDV5)
# test_details: Agonist activity at human GPR119 receptor expressed in CHO-K1 cells co-expressing 6CRE-luciferase gene after 5 hrs by luciferase reporter gene assay
# Assay type: functional, cell-based
# test_context: read-out: pEC50 (converted)
Attribute: EC50
Answer format: numeric, nM implied, no suffix.

cpd_smiles=CC(C)OC(=O)N1CCC(Oc2ncnc3c2CCN3c2ccc(S(=O)(=O)N(C)C)cc2)CC1 result_value=501
cpd_smiles=Cc1cc(S(C)(=O)=O)ccc1N1CCc2c(OC3CCN(C(=O)OC(C)C)CC3)ncnc21 result_value=100

Entry under review: CC(C)OC(=O)N1CCC(Oc2ncnc3c2CCN3c2ccc([S@@+](C)[O-])cc2F)CC1 . Reported EC50? 631

Entry under review: CS(=O)(=O)c1ccc(N2CCc3c(OC4CCN(C(=S)Sc5ccccc5)CC4)ncnc32)c(F)c1 . Reported EC50? 12.6

Entry under review: CCSC(=O)N1CCC(Oc2ncnc3c2CCN3c2ccc(S(C)(=O)=O)cc2F)CC1 . Reported EC50? 31.6

Entry under review: COCCOC(=O)N1CCC(Oc2ncnc3c2CCN3c2ccc(S(C)(=O)=O)cc2F)CC1 . Reported EC50? 316

Entry under review: CC(C)OC(=O)N1CCC(Oc2ncnc3c2CCN3c2ccc(S(C)(=O)=O)cc2F)CC1 . Reported EC50? 50.1

Entry under review: CC(C)OC(=O)N1CCC(Oc2ncnc3c2CCN3c2ccc(-c3cccn3C)cc2F)CC1 . Reported EC50? 158

Entry under review: CCCOC(=O)N1CCC(Oc2ncnc3c2CCN3c2ccc(S(C)(=O)=O)cc2F)CC1 . Reported EC50? 79.4

###

# study_system: UniProt Q8TDV5
# Sequence (Q8TDV5 whole entry): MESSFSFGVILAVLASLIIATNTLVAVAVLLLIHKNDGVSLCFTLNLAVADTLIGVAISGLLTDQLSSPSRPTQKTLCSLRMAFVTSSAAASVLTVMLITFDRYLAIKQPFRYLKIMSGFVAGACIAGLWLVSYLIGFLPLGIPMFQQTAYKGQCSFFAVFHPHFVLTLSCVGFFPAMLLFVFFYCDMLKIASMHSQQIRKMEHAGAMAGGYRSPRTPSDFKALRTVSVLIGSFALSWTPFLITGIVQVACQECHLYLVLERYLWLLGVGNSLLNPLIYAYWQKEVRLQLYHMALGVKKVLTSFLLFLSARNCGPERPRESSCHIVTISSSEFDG
# test_details: Agonist activity at human GPR119 receptor expressed in CHO-K1 cells co-expressing 6CRE-luciferase gene after 5 hrs by luciferase reporter gene assay
# Type: functional, cell-based
# test_context: read-out: pEC50 (converted)
Attribute: EC50
Answer format: numeric, nM implied, no suffix.

cpd_smiles=CC(C)OC(=O)N1CCC(Oc2ncnc3c2CCN3c2ccc([S@+](C)[O-])cc2F)CC1 endpoint_name=EC50 result_value=50.1
cpd_smiles=CS(=O)(=O)c1ccc(N2CCc3c(OC4CCN(C(=O)OCCF)CC4)ncnc32)c(F)c1 endpoint_name=EC50 result_value=501
cpd_smiles=N#CN1CCC(O)CC1 endpoint_name=EC50 result_value=316
cpd_smiles=CC(C)OC(=O)N1CCC(Oc2ncnc3c2CCN3c2ccc(C#N)cc2F)CC1 endpoint_name=EC50 result_value=63.1

Param readout= EC50; system= UniProt Q8TDV5; entry= CSC(=O)N1CCC(Oc2ncnc3c2CCN3c2ccc(S(C)(=O)=O)cc2F)CC1 ; returns value. 251

Param readout= EC50; system= UniProt Q8TDV5; entry= CC(C)OC(=O)N1CCC(N(C)c2ncnc3c2CCN3c2ccc(S(C)(=O)=O)cc2F)CC1 ; returns value. 631

###

# test_details: Oral bioavailability in mouse at 30 mg/kg
# Assay type: ADME, organism-based
# test_context: in vivo
endpoint_name: bioavailability (%)
Answer format: numeric, % implied, no suffix.

Entry under review: CC(C)OC(=O)N1CCC(Oc2ncnc3c2CCN3c2ccc(S(C)(=O)=O)cc2F)CC1 . Reported bioavailability? 40

###

# study_system: Glucose-dependent insulinotropic receptor (Homo sapiens, UniProt Q8TDV5)
# Sequence (Q8TDV5 whole entry): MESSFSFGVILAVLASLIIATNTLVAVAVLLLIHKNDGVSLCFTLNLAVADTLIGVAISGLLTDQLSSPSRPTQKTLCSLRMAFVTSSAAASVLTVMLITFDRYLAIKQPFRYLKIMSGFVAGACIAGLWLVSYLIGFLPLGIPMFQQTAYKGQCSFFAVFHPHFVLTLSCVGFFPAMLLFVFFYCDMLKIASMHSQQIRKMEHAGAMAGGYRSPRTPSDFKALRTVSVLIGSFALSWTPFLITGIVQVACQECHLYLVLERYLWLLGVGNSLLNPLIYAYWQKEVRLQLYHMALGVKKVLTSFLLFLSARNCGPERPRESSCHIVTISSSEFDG
# test_details: Agonist activity at human GPR119 receptor expressed in CHO-K1 cells co-expressing 6CRE-luciferase gene after 5 hrs by luciferase reporter gene assay
# Type: functional, cell-based
# test_context: read-out: pEC50 (converted)
endpoint_name: log10(EC50) (log10 of the value in nM)
On a log10 scale: recorded EC50, unit nM.

cpd_smiles=CC(C)OC(=O)N1CCC(Oc2ncnc3c2CCN3c2ccc(C#N)c(F)c2)CC1 study_system="Glucose-dependent insulinotropic receptor (Homo sapiens, UniProt Q8TDV5)" endpoint_name=log10(EC50) result_value=2.60
cpd_smiles=CC(C)OC(=O)N1CCC(Oc2ncnc3c2CCN3c2ccc(S(C)(=O)=O)cn2)CC1 study_system="Glucose-dependent insulinotropic receptor (Homo sapiens, UniProt Q8TDV5)" endpoint_name=log10(EC50) result_value=2.10
cpd_smiles=CC(C)OC(=O)N1CCC(Oc2ncnc3c2CCN3c2ccc(-c3nccs3)cc2F)CC1 study_system="Glucose-dependent insulinotropic receptor (Homo sapiens, UniProt Q8TDV5)" endpoint_name=log10(EC50) result_value=1.90

Param readout= log10(EC50); system= Glucose-dependent insulinotropic receptor (Homo sapiens, UniProt Q8TDV5); entry= CS(=O)(=O)c1ccc(N2CCc3c(OC4CCN(C5=NCCCN5)CC4)ncnc32)c(F)c1 ; returns value. 3.30

Param readout= log10(EC50); system= Glucose-dependent insulinotropic receptor (Homo sapiens, UniProt Q8TDV5); entry= CC(C)c1noc(N2CCC(O)CC2)n1 ; returns value. 1.70

Param readout= log10(EC50); system= Glucose-dependent insulinotropic receptor (Homo sapiens, UniProt Q8TDV5); entry= CCS(=O)(=O)N1CCC(Oc2ncnc3c2CCN3c2ccc(S(C)(=O)=O)cc2F)CC1 ; returns value. 3.20

Param readout= log10(EC50); system= Glucose-dependent insulinotropic receptor (Homo sapiens, UniProt Q8TDV5); entry= CCCCOC(=O)N1CCC(Oc2ncnc3c2CCN3c2ccc(S(C)(=O)=O)cc2F)CC1 ; returns value. 1.70

Param readout= log10(EC50); system= Glucose-dependent insulinotropic receptor (Homo sapiens, UniProt Q8TDV5); entry= CC(C)SC(=O)N1CCC(Oc2ncnc3c2CCN3c2ccc(S(C)(=O)=O)cc2F)CC1 ; returns value. 1.00

Param readout= log10(EC50); system= Glucose-dependent insulinotropic receptor (Homo sapiens, UniProt Q8TDV5); entry= CC(C)S(=O)(=O)N1CCC(Oc2ncnc3c2CCN3c2ccc(S(C)(=O)=O)cc2F)CC1 ; returns value. 3.10

###

Attribute: EC50
# study_system: UniProt:Q8TDV5
# Sequence (Q8TDV5 whole entry): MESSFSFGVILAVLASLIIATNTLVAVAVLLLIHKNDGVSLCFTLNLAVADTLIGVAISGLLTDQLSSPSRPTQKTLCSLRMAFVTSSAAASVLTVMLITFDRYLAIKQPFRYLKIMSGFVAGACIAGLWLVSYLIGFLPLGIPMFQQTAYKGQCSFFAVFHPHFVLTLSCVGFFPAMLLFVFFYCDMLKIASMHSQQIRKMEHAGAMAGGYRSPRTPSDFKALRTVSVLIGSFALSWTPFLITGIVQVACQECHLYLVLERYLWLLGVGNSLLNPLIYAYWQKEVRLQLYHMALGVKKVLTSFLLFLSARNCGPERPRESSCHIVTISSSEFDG
# test_details: Agonist activity at human GPR119 receptor expressed in CHO-K1 cells co-expressing 6CRE-luciferase gene after 5 hrs by luciferase reporter gene assay
# Type: functional, cell-based
# test_context: read-out: pEC50 (converted)

cpd_smiles=COC(=O)N1CCC(Oc2ncnc3c2CCN3c2ccc(S(C)(=O)=O)cc2F)CC1 study_system=UniProt:Q8TDV5 result_value="0.316 µM"
cpd_smiles=CC(C)OC(=O)N1CCC(Oc2nc(N)nc3c2CCN3c2ccc(S(C)(=O)=O)cc2F)CC1 study_system=UniProt:Q8TDV5 result_value="0.794 µM"
cpd_smiles=Cc1ncccc1N1CCc2c(OC3CCN(C(=O)OC(C)C)CC3)ncnc21 study_system=UniProt:Q8TDV5 result_value="> 10 µM"
cpd_smiles=CC(C)OC(=O)N1CCC(Oc2cccc3c2CCN3c2ccc(S(C)(=O)=O)cc2)CC1 study_system=UniProt:Q8TDV5 result_value="0.501 µM"

Read the next record carefully.
Entry under review: CC(C)COC(=O)N1CCC(Oc2ncnc3c2CCN3c2ccc(S(C)(=O)=O)cc2F)CC1 . Reported EC50? 0.0251 µM
